Hello, the source for this data is ChEMBL document CHEMBL4373646, in case you need it.

System: human cytoplasmic ribosome (Cyt 14 hybrid)
Assay: Selectivity ratio of IC50 for inhibition of human cytoplasmic ribosome Cyt 14 hybridized with Mycobacterium smegmatis ribosomes to IC50 for inhibition of Mycobacterium smegmatis wild type ribosomes
Type: toxicity
Details: read-out: Ratio IC50
Mark class 1 only for selectivity ratio values smaller than 800; exact matches and larger values are class 0.

CCC[C@H]1[C@H](O)[C@@H](N)[C@@H](O[C@H]2[C@H](O[C@@H]3O[C@H](CO)[C@@H](O[C@H]4O[C@@H](CN)[C@@H](O)[C@H](O)[C@H]4N)[C@H]3O)[C@@H](O)[C@H](N)C[C@@H]2N)O[C@@H]1CO | class 0
CCN[C@@H]1C[C@H](N)[C@@H](O[C@H]2OC(CN)=C(SCC)C[C@H]2N)[C@H](O)[C@H]1O[C@H]1OC[C@](C)(O)[C@H](NC)[C@H]1O | class 0
CCN[C@@H]1C[C@H](N)[C@@H](O[C@H]2OC(CN)=C(Cl)C[C@H]2N)[C@H](O)[C@H]1O[C@H]1OC[C@](C)(O)[C@H](NC)[C@H]1O | class 0
CCCCC1=C(CN)O[C@H](O[C@H]2[C@H](O)[C@@H](O[C@H]3OC[C@](C)(O)[C@H](NC)[C@H]3O)[C@H](NCC)C[C@@H]2N)[C@H](N)C1 | class 0
CCN[C@@H]1C[C@H](N)[C@@H](O[C@H]2OC(CN)=C(c3ccccc3)C[C@H]2N)[C@H](O)[C@H]1O[C@H]1OC[C@](C)(O)[C@H](NC)[C@H]1O | class 1
CCS[C@H]1[C@H](O)[C@@H](N)[C@@H](O[C@H]2[C@H](O[C@@H]3O[C@H](CO)[C@@H](O[C@H]4O[C@@H](CN)[C@@H](O)[C@H](O)[C@H]4N)[C@H]3O)[C@@H](O)[C@H](N)C[C@@H]2N)O[C@@H]1CO | class 0

###

Assay: Inhibition of human mitochondrial ribosome Mit 13 A1555G mutant hybridized with Mycobacterium smegmatis ribosome assessed as inhibition of translation activity using Firefly luciferase mRNA reporter based luminescence analysis
pIC50: −log10 of the molar value.
measured_property: pIC50

CCN[C@@H]1C[C@H](N)[C@@H](O[C@H]2OC(CN)=C(c3ccccc3)C[C@H]2N)[C@H](O)[C@H]1O[C@H]1OC[C@](C)(O)[C@H](NC)[C@H]1O | 5.46
NC[C@@H]1O[C@H](O[C@H]2[C@@H](O)[C@H](O[C@@H]3[C@@H](O)[C@H](N)C[C@H](N)[C@H]3O[C@H]3O[C@H](CO)[C@@H](O)[C@H](O)[C@H]3N)O[C@@H]2CO)[C@H](N)[C@@H](O)[C@@H]1O [PAROMOMYCIN] | 4.92
CCS[C@H]1[C@H](O)[C@@H](N)[C@@H](O[C@H]2[C@H](O[C@@H]3O[C@H](CO)[C@@H](O[C@H]4O[C@@H](CN)[C@@H](O)[C@H](O)[C@H]4N)[C@H]3O)[C@@H](O)[C@H](N)C[C@@H]2N)O[C@@H]1CO | 4.12
CCC[C@H]1[C@H](O)[C@@H](N)[C@@H](O[C@H]2[C@H](O[C@@H]3O[C@H](CO)[C@@H](O[C@H]4O[C@@H](CN)[C@@H](O)[C@H](O)[C@H]4N)[C@H]3O)[C@@H](O)[C@H](N)C[C@@H]2N)O[C@@H]1CO | 4.28
CCCCC1=C(CN)O[C@H](O[C@H]2[C@H](O)[C@@H](O[C@H]3OC[C@](C)(O)[C@H](NC)[C@H]3O)[C@H](NCC)C[C@@H]2N)[C@H](N)C1 | 4.66
CCN[C@@H]1C[C@H](N)[C@@H](O[C@H]2OC(CN)=C(SCC)C[C@H]2N)[C@H](O)[C@H]1O[C@H]1OC[C@](C)(O)[C@H](NC)[C@H]1O | 4.34
CCN[C@@H]1C[C@H](N)[C@@H](O[C@H]2OC(CN)=C(Cl)C[C@H]2N)[C@H](O)[C@H]1O[C@H]1OC[C@](C)(O)[C@H](NC)[C@H]1O | 5.82
CCN[C@@H]1C[C@H](N)[C@@H](O[C@H]2OC(CN)=C(Br)C[C@H]2N)[C@H](O)[C@H]1O[C@H]1OC[C@](C)(O)[C@H](NC)[C@H]1O | 5.92
CCN[C@@H]1C[C@H](N)[C@@H](O[C@H]2OC(CN)=C(I)C[C@H]2N)[C@H](O)[C@H]1O[C@H]1OC[C@](C)(O)[C@H](NC)[C@H]1O | 5.82
CCN[C@@H]1C[C@H](N)[C@@H](O[C@H]2OC(CN)=CC[C@H]2N)[C@H](O)[C@H]1O[C@H]1OC[C@](C)(O)[C@H](NC)[C@H]1O [NETILMICIN] | 6.15
